Record form. Attribute: pIC50. Fill in for each entry.
Biological target: catalytic domain (JH1, amino acids 808-1132) of human JAK2 (Homo sapiens, UniProt O60674)
Construct: catalytic domain (JH1, amino acids 808-1132) of human JAK2; His (N)
Sequence (O60674 808-1132): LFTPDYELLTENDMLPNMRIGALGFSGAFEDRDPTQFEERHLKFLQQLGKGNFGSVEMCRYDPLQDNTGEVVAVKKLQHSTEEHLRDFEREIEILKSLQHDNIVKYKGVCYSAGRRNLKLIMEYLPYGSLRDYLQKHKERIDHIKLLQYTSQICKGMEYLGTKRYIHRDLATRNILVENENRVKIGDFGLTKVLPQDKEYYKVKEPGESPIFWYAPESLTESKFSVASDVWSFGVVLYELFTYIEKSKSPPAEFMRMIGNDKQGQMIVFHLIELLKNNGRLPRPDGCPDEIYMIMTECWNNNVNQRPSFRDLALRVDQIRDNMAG
Experiment: JAK2 HTRF Enzyme Activity Assay
Conditions: ATP 30 μM, read-out: ENZ 30UMATP
pIC50: −log10 of the molar value. Where a name gives a salt, the structure may show the parent alone.

API: value(readout=pIC50, system=catalytic domain (JH1, amino acids 808-1132) of human JAK2 (Homo sapiens, UniProt O60674)) for record CON1C(=O)C2(CCN(CC3(CC#N)CC3)C2)c2c1cnc1[nH]c(-c3cnn(C)c3)c(-c3ccc4c(cnn4C)c3)c21 (racemic) [Example 72, trifluoroacetate salt]
5.90 to 6.30

Entry to check: CN1C(=O)[C@]2(CC[C@@H](NS(=O)(=O)C3CC3)C2)c2c1cnc1[nH]c(-c3cnn(C)c3)c(-c3ccc4c(cnn4C)c3)c21 (racemic) [Example 55, trifluoroacetate salt]
5.90 to 6.30

Now this one: CN1C(=O)C2(CCN(C3(CC#N)CCC3)CC2)c2c1cnc1[nH]c(-c3cnn(CC4CC4)c3)c(-c3ccc4c(cnn4C)c3)c21 [Example 39, trifluoroacetate salt]
6.30 to 7.00

Try CCS(=O)(=O)N1CC(CC#N)(N2CCC3(CC2)C(=O)N(C)c2cnc4[nH]c(-c5cnn(C)c5)c(-c5ccccc5)c4c23)C1 [Example 23, trifluoroacetate salt] next.
6.30 to 7.00

Subsequent entry: CN1C(=O)C2(CCN(CCC#N)CC2)c2c1cnc1[nH]c(-c3ccc(CN4CCC(S(C)(=O)=O)CC4)cc3)c(-c3ccccc3)c21 [Example 4, trifluoroacetate salt]
5.90 to 6.30

Same question for COC(C)(C)Cn1cc(-c2[nH]c3ncc4c(c3c2-c2ccc3c(cnn3C)c2)C2(CCN(C3(CC#N)CCC3)CC2)C(=O)N4C)cn1 [Example 44, trifluoroacetate salt] please.
6.30 to 7.00

Now give it for CC(=O)N1C2CCC1CC1(C2)C(=O)N(C)c2cnc3[nH]c(-c4ccc(CN5CCC(S(C)(=O)=O)CC5)cc4)c(-c4ccccc4)c3c21 (stereo not drawn) [Example 13, trifluoroacetate salt] too.
5.60 to 5.90

One more molecule: CN1C(=O)C2(CCN(S(=O)(=O)C3(CC#N)CC3)C2)c2c1cnc1[nH]c(-c3cnn(C)c3)c(-c3ccc4c(cnn4C)c3)c21 (racemic) [Example 71, trifluoroacetate salt]
5.60 to 5.90

And for CN1C(=O)C2(CCN(C3(CC#N)CCC3)CC2)c2c1cnc1[nH]c(-c3cnn4c3CCCC4)c(-c3ccc4c(cnn4C)c3)c21 [Example 43] ?
< 5.60

Field entry: COC(=O)N1CCC(CC#N)(N2CCC3(CC2)C(=O)N(C)c2cnc4[nH]c(-c5cnn(C)c5)c(-c5ccc6c(cnn6C)c5)c4c23)CC1 [Example 81]
5.90 to 6.30

Thanks! And CCS(=O)(=O)c1ccc(-c2[nH]c3ncc4c(c3c2-c2ccc3c(cnn3C)c2)C2(CCN(C3(CC#N)CCC3)CC2)C(=O)N4C)cc1 [Example 35, trifluoroacetate salt] ?
5.90 to 6.30

Repeat for the following molecule: CCCC(=O)N1CCC2(CC1)CC1(C2)C(=O)N(C)c2cnc3[nH]c(-c4ccn(C)c4)c(-c4ccc5c(cnn5C)c4)c3c21 [Example 64, trifluoroacetate salt]
5.60 to 5.90

// same read-out, input: C=Cc1c(-c2cnn(C)c2)[nH]c2ncc3c(c12)C1(CCN(c2ccncn2)CC1)C(=O)N3C [Example 18, trifluoroacetate salt]
< 5.60

CN1C(=O)C2(CCN(c3cnn(C4(CC#N)CCOCC4)c3)CC2)c2c1cnc1[nH]c(-c3cnn(C)c3)c(-c3ccccc3)c21 [Example 6, trifluoroacetate salt] , same question.
< 5.60

Same question, O=C(O)C(F)(F)F.[2H]C([2H])([2H])n1ccc2cc(-c3c(-c4cnn(CCOC)c4)[nH]c4ncc5c(c34)C3(CCN(C4(CC#N)CCC4)CC3)C(=O)N5C)ccc21 [Example 46] this time
5.90 to 6.30

Next molecule: O=C(O)C(F)(F)F.[2H]C([2H])([2H])N1C(=O)C2(CC3(CN(S(=O)(=O)CC)C3)C2)c2c1cnc1[nH]c(-c3ccc(CN4CCOCC4)cc3)c(-c3ccc(OC)cc3)c21 [Example 92]
< 5.60

// query: CCS(=O)(=O)N1CC2(C1)CC1(C2)C(=O)N(C)c2cnc3[nH]c(-c4cnn(C(C)C)c4)c(-c4ccc5c(cnn5C)c4)c3c21 [Example 54, trifluoroacetate salt]
5.90 to 6.30

Now this one: CN1C(=O)C2(CCN(C(C)(C)c3nnc[nH]3)CC2)c2c1cnc1[nH]c(-c3cnn(C)c3)c(-c3ccc4c(cnn4C)c3)c21 [Example 77]
5.90 to 6.30

// query: CC(=O)N1CC(CC#N)(N2CCC3(CC2)C(=O)N(C)c2cnc4[nH]c(-c5cnn(C)c5)c(-c5ccccc5)c4c23)C1 [Example 24, trifluoroacetate salt]
6.30 to 7.00

Again, but for CN1C(=O)C2(CCC2)c2c1cnc1[nH]c(-c3ccc(CN4CCC(S(C)(=O)=O)CC4)cc3)c(-c3ccccc3)c21 [Example 10, trifluoroacetate salt]
< 5.60

Okay, and CCS(=O)(=O)N1CC2(C1)CC1(C2)C(=O)N(C)c2cnc3[nH]c(-c4cnn(CC(F)F)c4)c(-c4ccc5c(cnn5C)c4)c3c21 [Example 93, trifluoroacetate salt] ?
5.60 to 5.90
